Task for the reader: assign each of the following compounds its reported IC50.
- System: A431 (squamous skin) carcinoma cell line
- assay: MTT anti-proliferative assay, A431
- Type: cell-based
- setup_conditions: Homo sapiens, A-431, 72 h; read-out: IC50, μM ± SD, A431
Provide the reading as a plain figure in µM.

// IC50 lookup, compound = CCNC(=O)N1C/C(=C\c2ccc(C)cc2)C(=O)/C(=C/c2ccc(C)cc2)C1 [Compound 41] , result: 2.64

CCNC(=O)N1C/C(=C\c2ccc(F)cc2)C(=O)/C(=C/c2ccc(F)cc2)C1 [Compound 37] has a reported IC50 of 1.18

The reported IC50 of the compound Cc1ccc(/C=C2\CN(C(=O)Nc3ccccc3)C/C(=C\c3ccc(C)cc3)C2=O)cc1 [Compound 39] was 2.57

Recorded result, O=C1/C(=C/c2ccc(F)cc2)CN(C(=O)Nc2ccccc2)C/C1=C\c1ccc(F)cc1 [Compound 34] , IC50: 1.27

// O=C1/C(=C/c2ccc(Cl)cc2)CN(C(=O)Nc2ccccc2)C/C1=C\c1ccc(Cl)cc1 [Compound 29] : IC50 value = 1.29

GET /value?item= O=C1/C(=C/c2ccc(F)cc2)CN(C(=O)NCc2ccccc2)C/C1=C\c1ccc(F)cc1 [Compound 38] &field=IC50 returns 1.33

// COc1ccc(NC(=O)N2C/C(=C\c3ccc(F)cc3)C(=O)/C(=C/c3ccc(F)cc3)C2)cc1 [Compound 36] : IC50 value = 1.31

Data point: COc1ccc(/C=C2\CN(C(=O)Nc3ccc(OC)cc3)C/C(=C\c3ccc(OC)cc3)C2=O)cc1 [Compound 45] ; IC50 = 11.3

IC50 reading for CCNC(=O)N1C/C(=C\c2ccc(Cl)cc2)C(=O)/C(=C/c2ccc(Cl)cc2)C1 [Compound 32] : 1.31

---

- System: A431 (squamous skin) carcinoma cell line
- assay: MTT anti-proliferative assay, A431
- Format: cell-based
- setup_conditions: Homo sapiens, A-431, 72 h; read-out: IC50, μM ± SD, A431
experimental_endpoint: IC50 (µM)
Answer format: numeric, µM implied, no suffix.

What the record says about CCNC(=O)N1C/C(=C\c2ccccc2)C(=O)/C(=C/c2ccccc2)C1 : IC50 is 2.56

// IC50 value for O=C1/C(=C/c2ccccc2)CN(C(=O)NCc2ccccc2)C/C1=C\c1ccccc1 : 2.58

---

experimental_endpoint: melting point

Record COc1ccc(NC(=O)N2C/C(=C\c3ccc(Cl)cc3)C(=O)/C(=C/c3ccc(Cl)cc3)C2)cc1 , field melting point: 210 to 212 °C

// recorded melting point for O=C1/C(=C/c2ccc(F)cc2)CN(C(=O)Nc2ccc(Cl)cc2)C/C1=C\c1ccc(F)cc1 : 192 to 194 °C

Looking up CCNC(=O)N1C/C(=C\c2ccc(C)cc2)C(=O)/C(=C/c2ccc(C)cc2)C1 , I see its melting point listed as 174 to 176 °C

Reported melting point ( O=C1/C(=C/c2ccc(F)cc2)CN(C(=O)NCc2ccccc2)C/C1=C\c1ccc(F)cc1 ) = 178 to 180 °C

Quick note, melting point for O=C1/C(=C/c2ccccc2)CN(C(=O)NCc2ccccc2)C/C1=C\c1ccccc1 landed at 163 to 165 °C

Looking up O=C1/C(=C/c2ccccc2)CN(C(=O)Nc2ccccc2)C/C1=C\c1ccccc1 , I found its melting point recorded as 179 to 181 °C

Reported melting point ( O=C1/C(=C/c2ccc(Cl)cc2)CN(C(=O)NCc2ccccc2)C/C1=C\c1ccc(Cl)cc1 ) = 199 to 201 °C
